Numbers sourced from patent EP4700044A1.

# system-tested: T1, FGFR1c and the cofactor β-Klotho (Homo sapiens, UniProt P11362+Q86Z14)
# T1 construct: host or cells: iLite FGF21 assay ready cells (genetically engineered reporter gene cell line)
# T1 sequence (P11362 22-822): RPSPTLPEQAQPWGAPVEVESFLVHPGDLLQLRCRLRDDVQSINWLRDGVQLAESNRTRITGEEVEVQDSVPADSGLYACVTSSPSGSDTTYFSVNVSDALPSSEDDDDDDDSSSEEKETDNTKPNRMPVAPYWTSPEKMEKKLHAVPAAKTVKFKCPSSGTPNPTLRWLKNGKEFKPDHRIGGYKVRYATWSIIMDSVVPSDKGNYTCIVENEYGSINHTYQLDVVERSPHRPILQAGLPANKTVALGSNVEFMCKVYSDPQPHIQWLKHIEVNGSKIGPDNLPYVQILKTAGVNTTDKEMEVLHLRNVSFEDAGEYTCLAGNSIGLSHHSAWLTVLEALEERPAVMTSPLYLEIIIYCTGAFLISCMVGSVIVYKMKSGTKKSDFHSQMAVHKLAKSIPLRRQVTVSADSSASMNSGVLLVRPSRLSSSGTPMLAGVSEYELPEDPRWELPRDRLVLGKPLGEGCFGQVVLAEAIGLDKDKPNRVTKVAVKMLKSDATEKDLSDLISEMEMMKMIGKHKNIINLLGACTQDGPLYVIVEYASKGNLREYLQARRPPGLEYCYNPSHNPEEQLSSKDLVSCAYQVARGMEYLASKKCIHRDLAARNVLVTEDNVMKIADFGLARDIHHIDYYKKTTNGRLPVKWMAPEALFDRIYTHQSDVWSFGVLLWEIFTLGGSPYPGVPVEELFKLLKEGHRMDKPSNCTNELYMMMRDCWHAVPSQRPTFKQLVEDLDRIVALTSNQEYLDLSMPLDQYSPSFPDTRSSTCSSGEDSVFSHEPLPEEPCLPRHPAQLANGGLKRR
# T1 sequence (Q86Z14 whole entry): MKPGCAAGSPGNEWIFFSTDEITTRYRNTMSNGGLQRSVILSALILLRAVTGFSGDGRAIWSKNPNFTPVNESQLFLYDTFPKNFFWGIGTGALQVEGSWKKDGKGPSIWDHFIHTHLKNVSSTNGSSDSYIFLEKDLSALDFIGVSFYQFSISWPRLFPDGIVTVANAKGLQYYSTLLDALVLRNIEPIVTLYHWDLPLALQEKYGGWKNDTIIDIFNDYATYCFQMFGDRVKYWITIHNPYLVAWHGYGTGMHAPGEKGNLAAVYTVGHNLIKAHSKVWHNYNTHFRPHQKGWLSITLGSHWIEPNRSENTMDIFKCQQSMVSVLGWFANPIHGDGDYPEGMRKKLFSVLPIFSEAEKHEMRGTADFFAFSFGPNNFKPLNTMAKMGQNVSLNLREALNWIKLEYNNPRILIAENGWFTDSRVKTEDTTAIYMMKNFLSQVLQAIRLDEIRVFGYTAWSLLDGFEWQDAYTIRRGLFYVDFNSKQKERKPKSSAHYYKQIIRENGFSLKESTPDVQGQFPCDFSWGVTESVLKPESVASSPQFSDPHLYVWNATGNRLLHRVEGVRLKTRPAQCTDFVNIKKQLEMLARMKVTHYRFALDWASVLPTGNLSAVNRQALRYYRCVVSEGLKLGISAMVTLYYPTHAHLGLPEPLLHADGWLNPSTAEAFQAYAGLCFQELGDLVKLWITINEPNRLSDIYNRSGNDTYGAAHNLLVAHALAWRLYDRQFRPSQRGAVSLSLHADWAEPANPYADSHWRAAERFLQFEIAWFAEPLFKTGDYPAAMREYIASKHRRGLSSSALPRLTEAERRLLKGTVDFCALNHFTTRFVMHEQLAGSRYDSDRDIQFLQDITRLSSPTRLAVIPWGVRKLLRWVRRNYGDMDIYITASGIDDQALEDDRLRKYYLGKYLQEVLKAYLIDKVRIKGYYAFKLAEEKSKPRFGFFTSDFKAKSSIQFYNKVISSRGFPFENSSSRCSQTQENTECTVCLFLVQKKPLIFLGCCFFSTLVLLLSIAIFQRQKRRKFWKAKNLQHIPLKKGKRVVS
# experiment-description: dual-luciferase reporter gene assay in iLite FGF21 assay ready cells
# Format: cell-based
# condition-notes: Example 6, four-parameter fitting
measurement-kind: EC50 (nM)
Numeric only. Scale: nM

Give EC50 for Compound 5.4: FGF21K122C mutant (SEQ NO: 8) modified by the albumin-binding agent of Example 2.1 (conjugate, albumin-binding agent of Example 2.1) HPIPDSSPLLQFGGQVRQRYLYTDDAQQTEAHLEIREDGTVGGAADQSPESLLQLKALKPGVIQILGVKTSRFLCQRPDGALYGSLHFDPEACSFRERLLEDGYNVYQSEAHGLPLHLPGNCSPHRDPAPRGPARFLPLPGLPPAPPEPPGILAPQPPDVGSSDPLSMVGGSQGRSPSYES
0.99
